Value source: paper PMC8548206

Assayed System: T1, HA-tagged SQSTM1 (Homo sapiens (Human)., UniProt Q13501)
T1 construct: autophagy receptor SQSTM1, full length; the printed limits 1-440 fit the human protein; also called HA-tagged bait; full length; source: HEK293T, transfected, in fixed cells (screen)
Assay Method Text: proximity ligation; pooled screen (isPLA-seq): Flag-tagged sdAb library co-transfected with HA-tagged SQSTM1 into HEK293T cells, fixed after 48 h, isPLA with anti-HA and anti-Flag antibodies, positive cells sorted by FACS, three rounds, CDR3 sequenced
Measurement Conditions: partners not purified
Assay Readout: binding result

Known results for binders:
Binder | binding result
anti-SQSTM1 sdAb #9 (Flag-tagged, sdAb library) (VHH, 21-aa CDR3 in place of the CDR3 of cAbBCII10; source: HEK293T, transfected (sdAb library in pcDNA3.1), in fixed cells; not shown: 3x Flag, C-terminal, kept) VHH: QVQLVESGGGSVQAGGSLRLSCTASGGSEYSYSTFSLGWFRQAPGQEREAVAAIASMGGLTYYADSVKGRFTISRDNAKNTVTLQMNNLKPEDTAIYYCAADRGCHSTLGSRISFFKGCIIGWGQGTQVTVSS | binds
Flag-tagged anti-SQSTM1 sdAb clone #1 (VHH, 21-aa CDR3 in place of the CDR3 of cAbBCII10; also called anti-SQSTM1 clone #1; sdAb #1; source: HEK293T, transfected (sdAb library in pcDNA3.1), in fixed cells; not shown: 3x Flag, C-terminal, kept) VHH: QVQLVESGGGSVQAGGSLRLSCTASGGSEYSYSTFSLGWFRQAPGQEREAVAAIASMGGLTYYADSVKGRFTISRDNAKNTVTLQMNNLKPEDTAIYYCAAEGLVYWTTKKSFGGCLLHDWSWGQGTQVTVSS | binds
anti-SQSTM1 sdAb #24 (Flag-tagged, sdAb library) (VHH, 21-aa CDR3 in place of the CDR3 of cAbBCII10; source: HEK293T, transfected (sdAb library in pcDNA3.1), in fixed cells; not shown: 3x Flag, C-terminal, kept) VHH: QVQLVESGGGSVQAGGSLRLSCTASGGSEYSYSTFSLGWFRQAPGQEREAVAAIASMGGLTYYADSVKGRFTISRDNAKNTVTLQMNNLKPEDTAIYYCAAVRTPVILRCFQSGIFYLVGEVWGQGTQVTVSS | binds
anti-SQSTM1 sdAb #11 (Flag-tagged, sdAb library) (VHH, 21-aa CDR3 in place of the CDR3 of cAbBCII10; source: HEK293T, transfected (sdAb library in pcDNA3.1), in fixed cells; not shown: 3x Flag, C-terminal, kept) VHH: QVQLVESGGGSVQAGGSLRLSCTASGGSEYSYSTFSLGWFRQAPGQEREAVAAIASMGGLTYYADSVKGRFTISRDNAKNTVTLQMNNLKPEDTAIYYCAAARAHFASLCDCQGNRITLLCDWGQGTQVTVSS | binds
anti-SQSTM1 sdAb #16 (Flag-tagged, sdAb library) (VHH, 21-aa CDR3 in place of the CDR3 of cAbBCII10; source: HEK293T, transfected (sdAb library in pcDNA3.1), in fixed cells; not shown: 3x Flag, C-terminal, kept) VHH: QVQLVESGGGSVQAGGSLRLSCTASGGSEYSYSTFSLGWFRQAPGQEREAVAAIASMGGLTYYADSVKGRFTISRDNAKNTVTLQMNNLKPEDTAIYYCAANMAIRVRWVAMFTCGPIGGVGWGQGTQVTVSS | binds

I have 4 binders here; please give me binding result for each one.
1. anti-SQSTM1 sdAb #27 (Flag-tagged, sdAb library) (VHH, 21-aa CDR3 in place of the CDR3 of cAbBCII10; source: HEK293T, transfected (sdAb library in pcDNA3.1), in fixed cells; not shown: 3x Flag, C-terminal, kept) VHH: QVQLVESGGGSVQAGGSLRLSCTASGGSEYSYSTFSLGWFRQAPGQEREAVAAIASMGGLTYYADSVKGRFTISRDNAKNTVTLQMNNLKPEDTAIYYCAAIIAELCSGLPCTSFLRTPCPVWGQGTQVTVSS
2. anti-SQSTM1 sdAb #18 (Flag-tagged, sdAb library) (VHH, 21-aa CDR3 in place of the CDR3 of cAbBCII10; source: HEK293T, transfected (sdAb library in pcDNA3.1), in fixed cells; not shown: 3x Flag, C-terminal, kept) VHH: QVQLVESGGGSVQAGGSLRLSCTASGGSEYSYSTFSLGWFRQAPGQEREAVAAIASMGGLTYYADSVKGRFTISRDNAKNTVTLQMNNLKPEDTAIYYCAAGIGYAGDCRAHTIATRRFSVGWGQGTQVTVSS
3. anti-SQSTM1 sdAb #20 (Flag-tagged, sdAb library) (VHH, 21-aa CDR3 in place of the CDR3 of cAbBCII10; source: HEK293T, transfected (sdAb library in pcDNA3.1), in fixed cells; not shown: 3x Flag, C-terminal, kept) VHH: QVQLVESGGGSVQAGGSLRLSCTASGGSEYSYSTFSLGWFRQAPGQEREAVAAIASMGGLTYYADSVKGRFTISRDNAKNTVTLQMNNLKPEDTAIYYCAAPGHGRPWRAATFPVDEGGGSAWGQGTQVTVSS
4. anti-SQSTM1 sdAb #14 (Flag-tagged, sdAb library) (VHH, 21-aa CDR3 in place of the CDR3 of cAbBCII10; source: HEK293T, transfected (sdAb library in pcDNA3.1), in fixed cells; not shown: 3x Flag, C-terminal, kept) VHH: QVQLVESGGGSVQAGGSLRLSCTASGGSEYSYSTFSLGWFRQAPGQEREAVAAIASMGGLTYYADSVKGRFTISRDNAKNTVTLQMNNLKPEDTAIYYCAAGGNTVKVSNIFEVSSSVRVRLWGQGTQVTVSS

Given back:
["binds", "binds", "binds", "binds"]
